Values compiled from the METLIN SMRT retention time set (Domingo-Almenara et al. 2019).

Assay: gradient 5% acetonitrile 3 min, to 50% in 2 min, to 85% in 15 min, held 3 min, 100 µL/min
Settings: column: Zorbax Extend-C18 2.1 x 50 mm; eluents: water / acetonitrile, 0.1% formic acid
The entries below are paired with their reported RP-LC retention time.
API: value field is a number in s; no unit string.

{"structure_smiles": "CCn1cc(S(=O)(=O)CC(=O)Nc2ccc3c(c2)OCO3)c2ccccc21", "RP-LC retention time / s": 754}
{"structure_smiles": "O=C(CCc1ccccc1)Nc1c(-c2ccc(F)cc2)nc2ccccn12", "RP-LC retention time / s": 687}
{"structure_smiles": "CCOC(=O)c1cc(-c2ccc(OC)c(S(=O)(=O)N3CCN(c4ccccn4)CC3)c2)on1", "RP-LC retention time / s": 726}

// below: RP-LC retention time requested for another molecule
**Query** Consider the molecule CN1CCN(CCCNC(=O)c2cc3occc3c(Nc3ccc(F)cc3)n2)CC1 . State its measured RP-LC retention time.
**Result** 616

---

Test: gradient 5% acetonitrile 3 min, to 50% in 2 min, to 85% in 15 min, held 3 min, 100 µL/min
Conditions: column: Zorbax Extend-C18 2.1 x 50 mm; eluents: water / acetonitrile, 0.1% formic acid
quantity_measured: RP-LC retention time (s)
Supply the numeric figure in s, leaving out any unit text.

{"compound": "CCn1c(=O)sc2cc(S(=O)(=O)N3CCC(C(=O)NC(C)C)CC3)ccc21", "quantity_measured": "RP-LC retention time", "reported_measurement": 749}
{"compound": "CCN(CC)S(=O)(=O)c1ccc2c(c1)CC(C(=O)NCCC(C)C)N2C(C)=O (stereo unspecified)", "quantity_measured": "RP-LC retention time", "reported_measurement": 848}
{"compound": "Cn1c(=O)n(C)c2cc(NS(=O)(=O)c3ccc(F)cc3)c(Cl)cc21", "quantity_measured": "RP-LC retention time", "reported_measurement": 726}
{"compound": "CCC(C)C1Nc2ccc(C(=O)NCCCOC)cc2NC1=O (stereo unspecified)", "quantity_measured": "RP-LC retention time", "reported_measurement": 653}
{"compound": "Cc1ccc(C(=O)Nc2ccc(N3CCN(Cc4ccccc4)C3=O)nc2)s1", "quantity_measured": "RP-LC retention time", "reported_measurement": 847}

**Query** Give RP-LC retention time for Cc1ccc(-c2noc(-c3nn(-c4cccc(F)c4)ccc3=O)n2)cc1
**Result** 956

**Query** Recall and state the measured RP-LC retention time for CC(C)c1c(C2CCN(C(=O)C3(c4ccccc4)CC3)CC2)noc1N .
**Result** 813

**Query** Quickly give me recorded RP-LC retention time for CCCCCC(CN1CCOCC1)C(=O)/C=C/c1ccccc1 (stereo unspecified)
**Result** 748

**Query** Hello, please tell me recorded RP-LC retention time for this one: CCOCCCNC(=O)C1CCCN(c2ncc(-c3ccc(F)cc3)cn2)C1 (stereo unspecified)
**Result** 886

**Query** Please indicate RP-LC retention time recorded for CC1CCN(C(=O)c2cc(S(=O)(=O)N3CCC(C(=O)N4CCC(C)CC4)CC3)cn2C)CC1
**Result** 883

**Query** Retrieve RP-LC retention time measured for O=C(C1CCN(c2cnc3nccnc3c2)CC1)N1CCC2(CC1)OCCO2 and print it.
**Result** 620

---

Test: gradient 5% acetonitrile 3 min, to 50% in 2 min, to 85% in 15 min, held 3 min, 100 µL/min
Settings: column: Zorbax Extend-C18 2.1 x 50 mm; eluents: water / acetonitrile, 0.1% formic acid
Please use the following RP-LC retention time ranges when assigning a class: I (below 700 s), II (700 s to below 900 s), III (900 s or more)

These recorded examples may help you get a feel for the data.
{"compound": "O=C(NCc1ccccc1)C1CCN(Cc2nncn2-c2ccccc2F)CC1", "class_label": "I"}
{"compound": "COC(=O)c1ccc(C(=O)NCC2CCN(S(=O)(=O)C3CC3)CC2)cc1", "class_label": "II"}
{"compound": "Cc1ccc(Oc2nccnc2N2CCCC(C(=O)Nc3ccc(N4CCOCC4)cc3)C2)cc1 (stereo not drawn)", "class_label": "III"}

**Query** Returns: class label. Input: O=C(NCc1ccco1)C1CCN(Cc2cc3ccccc3n2Cc2ccccc2Cl)CC1
**Result** II

**Query** The entry to classify is CC1(C)C(=O)N(CC(=O)Nc2ccc3c(c2)OCCO3)c2ccccc21 ; which class holds it?
**Result** II

**Query** Hi there! Could you help me figure out the category for Cc1cn(C)c(CC(=O)NCCN2CCCc3ccccc32)c1C(=O)O please?
**Result** II

**Query** Just checking, what class would you give CCCS(=O)(=O)N1CCC(c2noc(-c3ccncc3)n2)C1 (stereo not drawn) here?
**Result** II

**Query** Dear colleague, I would appreciate it if you could identify the bin for COC(=O)c1cn(CC(=O)N2CCc3ccccc3C2)c2ccccc12 and reply at your convenience.
**Result** III

**Query** Entry Cn1nnc(-c2ccc(-c3ccc(N4C[C@@H](CO)OC4=O)cc3F)cn2)n1 belongs to which category?
**Result** II

**Query** Which class is correct for the following compound? Cc1ccc(NC(=O)CSc2nc(N3CCCCC3)nc3ccccc23)cc1F
**Result** II

---

Assay: gradient 5% acetonitrile 3 min, to 50% in 2 min, to 85% in 15 min, held 3 min, 100 µL/min
Details: column: Zorbax Extend-C18 2.1 x 50 mm; eluents: water / acetonitrile, 0.1% formic acid
Each record's RP-LC retention time is compared with lower bin (below 700 s), middle bin (700 s to below 900 s), upper bin (900 s or more) to give its class.

Completed entries (count: 3):
{"compound": "CCOc1ccccc1CNC(=O)C1CCN(Cc2cn(C)c3ccc(Cl)cc23)CC1", "class_label": "middle bin"}
{"compound": "CC(C)NC(=O)Cn1c(C2CCCO2)nc2ccccc21 (stereo not drawn)", "class_label": "lower bin"}
{"compound": "CC(C)(C)c1cc(C(=O)Nc2cc(F)cc(F)c2)nc2ccnn12", "class_label": "upper bin"}

**Query** Textbook exercise: identify the category of the compound given here, CC1(C(=O)NCc2ccc(F)cc2)CN(S(=O)(=O)c2ccccc2)CC(=O)N1C1CCCCC1 (stereo not drawn) , according to its measured value.
**Result** upper bin

**Query** Which RP-LC retention time category applies to COC(=O)c1ccc(C(=O)NCC2(CO)CC2)cc1 here?
**Result** lower bin

**Query** Could you tell me which band CCN1C(=O)C2CC3(CCN(C(=O)CN4CCCC4=O)CC3)CN2C1=O (stereo not drawn) belongs to?
**Result** lower bin

**Query** Which category does the recorded RP-LC retention time put Cc1oc(-c2ccccc2)nc1CN(c1ccccc1)S(=O)(=O)c1cccs1 in?
**Result** upper bin

**Query** Input CCOC(=O)CSc1nnc(-c2cccnc2)n1-c1ccccc1 ; output its category
**Result** lower bin

**Query** Please let me know in which category the item CCCN(CCC)C1CCc2cccc(OC)c2C1 (stereo not drawn) belongs.
**Result** middle bin

**Query** Place this compound in its band: CC(=O)Nc1ccc(NC(=O)C2CCN(S(=O)(=O)c3c(C)nn(-c4ccccc4)c3C)CC2)cc1
**Result** middle bin

**Query** Using the reported RP-LC retention time, which band applies to CCc1ccc(N2CC(c3noc(-c4cccs4)n3)CC2=O)cc1 (stereo not drawn) ?
**Result** upper bin

**Query** Hi, small favor: classify COc1ccccc1-c1nnc(-c2cc(S(=O)(=O)N3CCCCC3)ccc2Cl)o1 by its RP-LC retention time when you get a moment.
**Result** upper bin

**Query** Form field 'band' for c1ccc2c(N3CCCC3)nnc(-c3nc(C4CC4)no3)c2c1
**Result** lower bin

**Query** Band for O=c1ccn(-c2ccc(Cl)cc2)nc1-c1nc(-c2cccc(Br)c2)no1 ?
**Result** upper bin

**Query** Returns: class label. Input: COc1ccc(Nc2cc(C)nc(N)n2)cc1
**Result** lower bin

**Query** Would you mind sorting COc1ccccc1NC(=O)C1Cc2ccccc2CN1S(=O)(=O)c1ccccc1 (stereo not drawn) into the appropriate category?
**Result** upper bin

**Query** The entry to classify is COc1cc(OC)c(NC(=O)N2CCC(n3c(C(F)(F)F)nc4cccnc43)CC2)cc1Cl ; which class holds it?
**Result** upper bin

**Query** Input CS(=O)(=O)N1C[C@H]2CCN(Cc3ccc(F)cc3Cl)C[C@H]21 ; output its category
**Result** lower bin

**Query** Pick a category. Item: COc1cccc(NC(=O)C2CCCCN2S(=O)(=O)c2ccc(F)cc2)c1 (stereo not drawn)
**Result** upper bin

**Query** Bin? O=C(c1ccc(N2CCNC(c3ccccc3)C2)nc1)N1CCSCC1 (stereo not drawn)
**Result** lower bin
